target: CDK12 (nuclear staining in CAL-120 cells) (Homo sapiens); construct: endogenous in cells; host or cells: CAL-120 human breast cancer cells (DSMZ ACC 459); assay: CDK12 nuclear protein level: immunofluorescence/high content analysis (CAL-120); format: cell-based; details: ratio of IC50 CDK12 high ATP kinase assay to DC50 CDK12 degradation (IF, CAL-120)
Sequence (Q9NYV4 whole entry): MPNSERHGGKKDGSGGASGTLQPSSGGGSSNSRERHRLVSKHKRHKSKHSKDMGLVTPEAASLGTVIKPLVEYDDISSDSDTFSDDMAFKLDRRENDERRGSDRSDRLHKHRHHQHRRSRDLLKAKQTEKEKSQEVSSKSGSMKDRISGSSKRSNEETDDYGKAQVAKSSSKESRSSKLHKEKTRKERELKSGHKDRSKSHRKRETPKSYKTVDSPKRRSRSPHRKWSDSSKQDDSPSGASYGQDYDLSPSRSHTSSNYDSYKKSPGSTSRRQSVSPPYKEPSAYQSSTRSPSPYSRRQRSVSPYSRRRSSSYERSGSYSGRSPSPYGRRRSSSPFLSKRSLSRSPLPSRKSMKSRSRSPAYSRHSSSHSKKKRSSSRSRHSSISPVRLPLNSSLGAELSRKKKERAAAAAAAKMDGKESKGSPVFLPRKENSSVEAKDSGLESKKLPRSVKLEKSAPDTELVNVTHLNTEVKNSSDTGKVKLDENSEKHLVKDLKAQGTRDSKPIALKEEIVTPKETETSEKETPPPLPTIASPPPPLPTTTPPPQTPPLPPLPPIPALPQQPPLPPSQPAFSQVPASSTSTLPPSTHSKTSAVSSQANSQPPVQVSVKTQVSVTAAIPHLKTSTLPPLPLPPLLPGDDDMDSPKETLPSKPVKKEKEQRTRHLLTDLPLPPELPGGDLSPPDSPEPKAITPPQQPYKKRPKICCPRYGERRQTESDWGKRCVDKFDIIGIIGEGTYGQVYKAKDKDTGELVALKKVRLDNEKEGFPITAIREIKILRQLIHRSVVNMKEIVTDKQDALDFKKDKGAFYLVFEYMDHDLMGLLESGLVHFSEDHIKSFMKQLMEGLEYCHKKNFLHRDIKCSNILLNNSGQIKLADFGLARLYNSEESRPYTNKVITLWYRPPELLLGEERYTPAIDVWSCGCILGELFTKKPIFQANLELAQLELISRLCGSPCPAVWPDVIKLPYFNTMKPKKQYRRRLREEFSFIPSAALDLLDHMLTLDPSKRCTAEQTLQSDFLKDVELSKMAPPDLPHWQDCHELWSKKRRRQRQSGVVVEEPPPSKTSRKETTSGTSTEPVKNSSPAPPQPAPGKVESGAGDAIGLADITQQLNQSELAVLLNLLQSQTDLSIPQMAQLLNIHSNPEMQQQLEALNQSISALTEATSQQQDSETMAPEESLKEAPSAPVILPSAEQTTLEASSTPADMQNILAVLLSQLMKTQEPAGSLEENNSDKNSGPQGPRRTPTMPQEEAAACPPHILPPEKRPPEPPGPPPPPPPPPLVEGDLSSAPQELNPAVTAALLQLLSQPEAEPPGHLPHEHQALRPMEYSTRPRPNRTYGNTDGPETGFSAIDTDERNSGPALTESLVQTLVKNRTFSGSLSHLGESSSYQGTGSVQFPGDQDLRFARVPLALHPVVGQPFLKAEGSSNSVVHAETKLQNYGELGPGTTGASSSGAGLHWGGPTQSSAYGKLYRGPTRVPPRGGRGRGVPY
Sequence (O75909 whole entry partner): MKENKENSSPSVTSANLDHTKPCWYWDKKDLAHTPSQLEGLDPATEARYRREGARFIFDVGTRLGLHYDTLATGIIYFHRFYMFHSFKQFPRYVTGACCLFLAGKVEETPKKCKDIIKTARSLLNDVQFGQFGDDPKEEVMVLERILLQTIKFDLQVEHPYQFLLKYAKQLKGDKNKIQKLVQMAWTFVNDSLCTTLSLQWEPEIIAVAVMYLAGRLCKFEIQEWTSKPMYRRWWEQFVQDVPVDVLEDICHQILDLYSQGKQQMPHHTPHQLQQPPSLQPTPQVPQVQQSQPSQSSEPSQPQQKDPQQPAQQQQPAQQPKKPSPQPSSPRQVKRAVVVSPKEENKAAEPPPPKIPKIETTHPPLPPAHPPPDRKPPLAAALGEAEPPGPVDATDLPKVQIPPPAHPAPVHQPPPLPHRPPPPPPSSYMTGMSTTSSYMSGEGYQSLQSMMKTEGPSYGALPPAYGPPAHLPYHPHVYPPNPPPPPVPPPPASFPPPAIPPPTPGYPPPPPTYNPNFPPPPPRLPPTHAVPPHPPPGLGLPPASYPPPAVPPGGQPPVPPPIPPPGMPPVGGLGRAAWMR
quantityMeasured: (IC50 CDK12 high ATP) to (Degradation DC50 CDK12) ratio

Solved cases (3 shown):
| compound | valueReported |
| --- | --- |
| COC1CCN(c2nc(NCc3nnc(-c4ccccc4)[nH]3)n3ncc(Br)c3n2)CC1 [Example 76] | >440 |
| NCCOCCOCCNc1nc(NCc2nc3ccccc3[nH]2)n2ncc(Br)c2n1 [Example 412] | >74 |
| c1ccc2[nH]c(CNc3nc(N4C[C@@H]5C[C@H]4CO5)nc4c(C5CC5)cnn34)nc2c1 [Example 254] | >2361 |

// moving on: another record for (IC50 CDK12 high ATP) to (Degradation DC50 CDK12) ratio
Ask: Which (IC50 CDK12 high ATP) to (Degradation DC50 CDK12) ratio value is on record for Fc1ccc2[nH]c(CNc3nc(N4CCOCC4)nc4c([C@@H]5CC5(F)F)cnn34)nc2c1 (single isomer, unassigned) [Example 315] ?
Result: >581

* * *

target: CYCLIN K (nuclear staining in CAL-120 cells) (Homo sapiens, UniProt O75909); construct: endogenous in cells; host or cells: CAL-120 human breast cancer cells (DSMZ ACC 459); experiment: CYCLIN K nuclear protein level: immunofluorescence high content analysis (CAL-120); assay type: cell-based; settings: 24 h, 50% reduction of nuclear CCNK staining intensity, median, read-out: CYCLIN K degradation IF, DC50-[mol/l] (median)
Note to self: DC50 under 0.3 nM means criterion met, ties and anything higher get criterion not met.

Ask: Item `COc1cccc(-c2nnc(CNc3nc(N4CCOCC4)nc4c(Br)cnn34)[nH]2)c1` : DC50 beneath 0.3 nM, strictly?
Result: criterion not met

Ask: Hello, I'm reviewing records and need to know if DC50 of `COc1ccc2[nH]c(CNc3nc(N4CCOCC4)nc4c(C(F)(F)F)cnn34)nc2c1` is below 0.3 nM. Could you check?
Result: criterion not met

Ask: # check: DC50 < 0.3 nM for `CN(CC(C)(C)O)c1nc(NCc2nc3cc(F)c(Cl)cc3[nH]2)n2ncc(C3CC3)c2n1`
Result: criterion not met

Ask: Problem: For the compound `Clc1cc2nc(CNc3nc(N4CCOCC4)nc4c(-c5cncs5)cnn34)[nH]c2cc1Cl` , is DC50 under 0.3 nM?
Result: criterion not met

Ask: Is DC50 of `Fc1ccc(-c2cnn3c(NCc4nc5ccccc5[nH]4)nc(N4CCOCC4)nc23)cc1` strictly below 0.3 nM?
Result: criterion not met

Ask: Is it true that DC50 reported for `OC[C@@H]1CCCCN1c1nc(NCc2nc3c(F)cccc3[nH]2)n2ncc(C3CC3)c2n1` is less than 0.3 nM?
Result: criterion not met

* * *

Molecular target: CDK12 (nuclear staining in CAL-120 cells) (Homo sapiens)
Construct: endogenous in cells; host or cells: CAL-120 human breast cancer cells (DSMZ ACC 459)
Assay: CDK12 nuclear protein level: immunofluorescence/high content analysis (CAL-120)
Type: cell-based
Settings: ratio of IC50 CDK12 high ATP kinase assay to DC50 CDK12 degradation (IF, CAL-120)
Description: In the context of the present invention, the term “DC50 CDK12” refers to the DC50 values obtained according to the assay described in this section (7) herein below, i.e. the DC50 values for the degradation of CDK12. Plates are then incubated for 24 h at 37° C. in an humidified incubator and fixed with 4% PFA for 10 min. […] Nuclear and cytoplasmic intensity as well as the nuclear/cytoplasmic intensity ratio is determined by automated image analysis using custom generated scripts (MetaXpress). […]
quantityMeasured: (IC50 CDK12 high ATP) to (Degradation DC50 CDK12) ratio
Answers are plain numbers.

# annotated cases, reported (IC50 CDK12 high ATP) to (Degradation DC50 CDK12) ratio shown
| molSmiles | targetSystem | valueReported |
| --- | --- | --- |
| Brc1cnn2c(NCc3nnc(-c4ccccc4)[nH]3)nc(N3CC4(COC4)C3)nc12 | CDK12 (nuclear staining in CAL-120 cells) (Homo sapiens) | 245 |
| COc1ccccc1-c1cnc(CNc2nc(N3CCOCC3)nc3c(Br)cnn23)[nH]1 | CDK12 (nuclear staining in CAL-120 cells) (Homo sapiens) | 1196 |
| Cc1ccc2[nH]c(CNc3nc(N4CCOCC4)nc4c(Br)cnn34)nc2c1 | CDK12 (nuclear staining in CAL-120 cells) (Homo sapiens) | 1089 |

Give measured (IC50 CDK12 high ATP) to (Degradation DC50 CDK12) ratio for every item shown.
1. COc1ccc2[nH]c(CNc3nc(N4C[C@@H](C)O[C@@H](C)C4)nc4c(Br)cnn34)nc2c1
2. [O-][S+]1CCN(c2nc(NCc3nc4ccccc4[nH]3)n3ncc(Br)c3n2)CC1
3. Fc1cccc(-c2nnc(CNc3nc(N4CCNCC4)nc4c(Br)cnn34)[nH]2)c1

Result:
1: 636; 2: 590; 3: 236

Ask: Give (IC50 CDK12 high ATP) to (Degradation DC50 CDK12) ratio (CDK12 (nuclear staining in CAL-120 cells) (Homo sapiens)) of the following compound: `CN1CCN(c2nc(NCc3nc4c(F)cccc4[nH]3)n3ncc(Br)c3n2)CC1`
Result: 7539
